Measured values drawn from ChEMBL document CHEMBL1155973 for this set.

biological target: Tyrosine-protein kinase Lck (Homo sapiens, UniProt P06239); test: Inhibition of Lck
Sequence (P06239 whole entry): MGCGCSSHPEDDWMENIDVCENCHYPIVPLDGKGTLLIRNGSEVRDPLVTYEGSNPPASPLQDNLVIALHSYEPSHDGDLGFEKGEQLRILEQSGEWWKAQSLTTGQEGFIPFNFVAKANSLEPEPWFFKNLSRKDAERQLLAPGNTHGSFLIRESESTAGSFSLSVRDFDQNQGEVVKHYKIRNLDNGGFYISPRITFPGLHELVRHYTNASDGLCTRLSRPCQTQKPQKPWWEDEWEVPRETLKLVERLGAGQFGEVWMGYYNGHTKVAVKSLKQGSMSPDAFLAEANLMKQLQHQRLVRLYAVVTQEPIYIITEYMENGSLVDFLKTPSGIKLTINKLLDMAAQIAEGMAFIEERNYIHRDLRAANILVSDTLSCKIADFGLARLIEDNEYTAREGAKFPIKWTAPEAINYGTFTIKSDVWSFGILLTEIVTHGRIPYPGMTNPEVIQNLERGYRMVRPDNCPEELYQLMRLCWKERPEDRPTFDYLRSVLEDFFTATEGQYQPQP
Measure: IC50 (nM)
Quick reminder: number only, in nM, skip the unit.

Query: Consider the compound CN1CCN(C(=O)c2ccc3ccccc3c2)CC1CNc1nccc(-n2cnc3ccccc32)n1 (stereo not given) tested on Tyrosine-protein kinase Lck (Homo sapiens, UniProt P06239); state its IC50.
Response: 10

Query: Give IC50 for this entry on Tyrosine-protein kinase Lck (Homo sapiens, UniProt P06239): O=C(Nc1cccc2ccccc12)N1CCNC(CNc2nccc(-n3cnc4ccccc43)n2)C1 (stereo not given)
Response: 110

Query: Name the recorded IC50 of CC(Nc1nccc(-n2cnc3ccccc32)n1)C1CCCN(C(=O)Nc2cccc3ccccc23)C1 (racemic) , assay system Tyrosine-protein kinase Lck (Homo sapiens, UniProt P06239).
Response: 1

Query: Look up and report IC50, with Tyrosine-protein kinase Lck (Homo sapiens, UniProt P06239) as system, for c1ccc(CNc2nccc(-n3cnc4ccccc43)n2)cc1
Response: 827

###

target: UniProt:P06239; test: Inhibition of Lck
Response field label takes Fulfilled when IC50 is strictly below 3 nM and Not fulfilled in all other cases.

Query: Bench note: check whether CC(Nc1nccc(-n2cnc3ccccc32)n1)C1CCCN(C(=O)Nc2ccccc2)C1 (centres undefined) shows IC50 below 3 nM
Response: Not fulfilled

Query: IC50 strictly < 3 nM for this compound? CC(Nc1nccc(-n2cnc3ccccc32)n1)C1CCCN(C(=O)Cc2ccccc2)C1 (centres undefined)
Response: Not fulfilled

Query: Answer whether the compound C[C@H](Nc1nccc(-n2cnc3ccccc32)n1)[C@@H]1CN(C(=O)Nc2cccc3ccccc23)CCN1C has IC50 strictly less than 3 nM
Response: Fulfilled

Query: Please determine if Cc1nc2ccccc2n1-c1ccnc(N[C@@H](C)c2ccccc2)n1 is below 3 nM in terms of IC50.
Response: Not fulfilled

Query: I wonder whether CC(Nc1nccc(-n2cnc3ccccc32)n1)C1CN(C(=O)Nc2cccc3ccccc23)CCN1Cc1ccccc1 (centres undefined) has IC50 below 3 nM. Can you tell?
Response: Fulfilled

Query: Consider CC(Nc1nccc(-n2cnc3ccccc32)n1)C1CCCN(C(=O)NC2CCCCC2)C1 (centres undefined) . Does its IC50 lie strictly below 3 nM?
Response: Not fulfilled

Query: I'd appreciate it if you could check whether C[C@H](Nc1nccc(-n2cnc3cc(-c4ccnc(N)n4)ccc32)n1)c1ccccc1 has IC50 smaller than 3 nM.
Response: Fulfilled

Query: Would you kindly verify if IC50 of CC(Nc1nccc(-n2cnc3ccccc32)n1)C1CN(C(=O)Nc2cccc3ccccc23)CCN1C(=O)OCc1ccccc1 (centres undefined) is strictly less than 3 nM?
Response: Not fulfilled

Query: Bench note: check whether O=C(OCc1ccccc1)N1CCCC(CNc2nccc(-n3cnc4ccccc43)n2)C1 (centres undefined) shows IC50 below 3 nM
Response: Not fulfilled

###

For each entry below, report its IC50 value.
biological target: Tyrosine-protein kinase Lck (Homo sapiens, UniProt P06239); assay: Inhibition of Lck

Query: Report IC50, nothing else, for this compound: CCN1CCN(c2ccc3c(c2)ncn3-c2ccnc(N[C@@H](C)c3ccccc3)n2)C1=O
Response: 1 nM

Query: Fill in reported IC50 for this entry: O=C(c1ccc2ccccc2c1)N1CCCC(CNc2nccc(-n3cnc4ccccc43)n2)C1 (stereo not drawn)
Response: 106 nM

Query: Consider the compound CC(Nc1nccc(-n2cnc3ccccc32)n1)C1CN(C(=O)Nc2cccc3ccccc23)CCN1C (single isomer, unassigned; diastereomer 2) . State its measured IC50.
Response: 17.4 nM

Query: Complete the entry with IC50 for CC(Nc1nccc(-n2cnc3ccccc32)n1)C1CCCN(C(=O)Oc2ccccc2)C1 (stereo not drawn)
Response: 46 nM

Query: Entry Cc1cc2ncn(-c3ccnc(N[C@@H](C)c4ccccc4)n3)c2cc1C needs its IC50 filled in; supply it.
Response: 2070 nM

Query: Identify measured IC50 corresponding to CCCCCCN1CCN(C(=O)Nc2cccc3ccccc23)C[C@H]1[C@H](C)Nc1nccc(-n2cnc3ccccc32)n1
Response: 1.8 nM

Query: For CC(Nc1nccc(-n2cnc3ccccc32)n1)C1CN(C(=O)Nc2cccc3ccccc23)CCN1C (single isomer, unassigned; diastereomer 1) , write its IC50.
Response: 0.25 nM

Query: // Input: C[C@H](Nc1nccc(-n2cnc3ccccc32)n1)c1ccccc1 . Output its IC50 only.
Response: 153 nM

###

So I've got a bunch of compounds here, and I need their IC50 values.
target: Tyrosine-protein kinase Lck (Homo sapiens, UniProt P06239); assay: Inhibition of Lck
Write the answer as a number in nM, unit excluded.

Query: In one line, give reported IC50 of the entry C[C@@H](Nc1nccc(-n2cnc3ccccc32)n1)c1ccccc1 .
Response: 1770

Query: Indicate its recorded IC50; the compound in question is Cc1ccc2c(c1)ncn2-c1ccnc(N[C@@H](C)c2ccccc2)n1
Response: 128

Query: State its IC50: C[C@H](Nc1nccc(-n2cnc3ccccc32)n1)c1cccc([N+](=O)[O-])c1
Response: 47

Query: Identify IC50 associated with the compound CC(Nc1nccc(-n2cnc3ccccc32)n1)C1CN(Cc2ccccc2)CCN1C (centres undefined)
Response: 501

Query: Fill in IC50 for record CC(=O)N1CCN(C(=O)Nc2cccc3ccccc23)C[C@H]1[C@H](C)Nc1nccc(-n2cnc3ccccc32)n1
Response: 115

Query: Return value of IC50 for input C[C@H](Nc1nccc(-n2cnc3ccccc32)n1)[C@H]1CCCN(C(=O)Nc2cccc3ccccc23)C1 , no commentary.
Response: 0.4

Query: Report measured IC50; entry is CCN1CCN(C(=O)Nc2cccc3ccccc23)C[C@H]1[C@H](C)Nc1nccc(-n2cnc3ccccc32)n1
Response: 0.07

Query: For the compound CNC(=O)N1CCCC(C(C)Nc2nccc(-n3cnc4ccccc43)n2)C1 (centres undefined) , give its measured IC50 value.
Response: 242

###

molecular target: Tyrosine-protein kinase Lck (Homo sapiens, UniProt P06239); experiment: Inhibition of Lck
I'd be grateful if you could share measured IC50 for these entries.
Respond numerically; units are nM and should not be typed.

Query: Fill: IC50 (Tyrosine-protein kinase Lck (Homo sapiens, UniProt P06239)) for this compound CC(Nc1nccc(-n2cnc3ccccc32)n1)C1CN(C(=O)Nc2ccc3ccccc3c2)CCN1C (stereo not drawn)
Response: 75.2

Query: Please tell me the measured IC50 for Cc1ccc2ncn(-c3ccnc(N[C@@H](C)c4ccccc4)n3)c2c1 ; system: Tyrosine-protein kinase Lck (Homo sapiens, UniProt P06239).
Response: 58

Query: Identify measured IC50 obtained with Tyrosine-protein kinase Lck (Homo sapiens, UniProt P06239) for CC(Nc1nccc(-n2cnc3ccccc32)n1)C1CN(S(C)(=O)=O)CCN1C (stereo not drawn) .
Response: 22.5

Query: For Tyrosine-protein kinase Lck (Homo sapiens, UniProt P06239), give the measured IC50 of the entry CC(Nc1nccc(-n2cnc3ccccc32)n1)C1CCCN(C(=O)Nc2ccc3ccccc3c2)C1 (stereo not drawn)
Response: 40

Query: For Tyrosine-protein kinase Lck (Homo sapiens, UniProt P06239), give the measured IC50 of the entry C[C@H](Nc1nccc(-n2cnc3cc(-c4ccncc4)ccc32)n1)[C@@H]1CN(C(=O)Nc2cccc3ccccc23)CCN1C
Response: 0.12

Query: Find the measured IC50 of CCN1CCN(c2ccc3c(c2)ncn3-c2ccnc(N[C@@H](C)[C@@H]3CN(C(=O)Nc4cccc5ccccc45)CCN3C)n2)C1=O with Tyrosine-protein kinase Lck (Homo sapiens, UniProt P06239) as test system.
Response: 0.4

Query: // fetch IC50; item: CC(Nc1nccc(-n2cnc3ccccc32)n1)C1CN(C(=O)Nc2cccc3ccccc23)CCN1S(=O)(=O)c1ccccc1 (stereo not drawn) ; system: Tyrosine-protein kinase Lck (Homo sapiens, UniProt P06239)
Response: 26.5
